Molecular target: Bromodomain-containing protein 4 (Homo sapiens, UniProt O60885)
Assay: Binding affinity to human partial length BRD4 BD1 (N44 to E168 residues) expressed in Escherichia coli BL21 after 1 hr by BROMOscan assay
Collected Kd values appear next to each entry.
Readout: Kd

| Molecule | Test Target | Readout Value |
| --- | --- | --- |
| CCn1c(=O)c(C)nc2cc(C(=O)NC(C)c3cnn(C)c3C)ccc21 (centres undefined) | Bromodomain-containing protein 4 (Homo sapiens, UniProt O60885) | > 100 µM |
| CCn1c(=O)c(C)nc2cc(C(=O)N(C)Cc3ccn(Cc4ccccc4)n3)ccc21 | Bromodomain-containing protein 4 (Homo sapiens, UniProt O60885) | > 100 µM |
| CCn1c(=O)c(=O)[nH]c2cc(C(=O)N(C)Cc3cnn(-c4ccccc4)c3)ccc21 | Bromodomain-containing protein 4 (Homo sapiens, UniProt O60885) | > 100 µM |
| Cc1nc(C)c(C(=O)Nc2nc(CN3CC(C)CC(C)C3)cs2)o1 (centres undefined) | Bromodomain-containing protein 4 (Homo sapiens, UniProt O60885) | > 50 µM |

###

Target: Transcription intermediary factor 1-alpha (Homo sapiens, UniProt O15164)
Sequence (O15164 whole entry, the tested form may be a part): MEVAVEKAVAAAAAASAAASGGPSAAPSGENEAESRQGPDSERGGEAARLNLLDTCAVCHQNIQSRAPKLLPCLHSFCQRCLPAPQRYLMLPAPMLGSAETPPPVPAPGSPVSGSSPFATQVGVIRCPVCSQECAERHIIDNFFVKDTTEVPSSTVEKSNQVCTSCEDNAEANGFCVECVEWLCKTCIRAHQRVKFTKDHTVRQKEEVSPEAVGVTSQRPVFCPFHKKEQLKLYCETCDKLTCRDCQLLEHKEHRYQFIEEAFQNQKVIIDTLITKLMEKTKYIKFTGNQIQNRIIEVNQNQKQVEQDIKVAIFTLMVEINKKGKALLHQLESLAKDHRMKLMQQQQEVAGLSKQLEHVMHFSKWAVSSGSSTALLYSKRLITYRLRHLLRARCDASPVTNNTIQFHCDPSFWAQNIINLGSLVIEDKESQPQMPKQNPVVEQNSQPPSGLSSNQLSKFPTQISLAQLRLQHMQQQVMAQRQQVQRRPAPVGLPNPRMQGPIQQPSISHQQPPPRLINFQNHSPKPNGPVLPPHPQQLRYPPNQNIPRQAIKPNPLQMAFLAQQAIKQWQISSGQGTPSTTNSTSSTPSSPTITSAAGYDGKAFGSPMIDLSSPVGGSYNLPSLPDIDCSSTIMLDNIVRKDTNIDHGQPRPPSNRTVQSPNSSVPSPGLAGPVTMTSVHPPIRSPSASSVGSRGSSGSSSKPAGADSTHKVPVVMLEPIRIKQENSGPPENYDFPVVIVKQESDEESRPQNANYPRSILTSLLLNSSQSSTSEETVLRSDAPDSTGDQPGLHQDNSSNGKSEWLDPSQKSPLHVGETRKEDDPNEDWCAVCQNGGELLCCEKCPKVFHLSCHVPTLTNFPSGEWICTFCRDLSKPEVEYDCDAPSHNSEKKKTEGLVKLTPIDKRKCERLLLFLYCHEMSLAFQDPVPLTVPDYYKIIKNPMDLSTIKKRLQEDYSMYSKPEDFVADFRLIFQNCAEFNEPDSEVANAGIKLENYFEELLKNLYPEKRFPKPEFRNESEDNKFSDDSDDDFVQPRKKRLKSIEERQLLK
Assay: Binding affinity to human partial length TRIM24-phd-bromo (P790 to P977 residues) expressed in Escherichia coli BL21 after 1 hr by BROMOscan assay

| Compound | Test Target | Kd |
| --- | --- | --- |
| CCn1c(=O)c(C)nc2cc(C(=O)N(C)Cc3ccn(Cc4ccccc4)n3)ccc21 | Transcription intermediary factor 1-alpha (Homo sapiens, UniProt O15164) | > 100 µM |
| CCn1c(=O)c(=O)[nH]c2cc(C(=O)N(C)Cc3cnn(-c4ccccc4)c3)ccc21 | Transcription intermediary factor 1-alpha (Homo sapiens, UniProt O15164) | > 100 µM |
| CCn1c(=O)c(C)nc2cc(C(=O)NC(C)c3cnn(C)c3C)ccc21 (centres undefined) | Transcription intermediary factor 1-alpha (Homo sapiens, UniProt O15164) | > 100 µM |
| Cc1nc(C)c(C(=O)Nc2nc(CN3CC(C)CC(C)C3)cs2)o1 (centres undefined) | Transcription intermediary factor 1-alpha (Homo sapiens, UniProt O15164) | > 50 µM |

###

Collected IC50 values appear next to each entry.
Molecular target: Peregrin (Homo sapiens, UniProt P55201)
Sequence (P55201 whole entry): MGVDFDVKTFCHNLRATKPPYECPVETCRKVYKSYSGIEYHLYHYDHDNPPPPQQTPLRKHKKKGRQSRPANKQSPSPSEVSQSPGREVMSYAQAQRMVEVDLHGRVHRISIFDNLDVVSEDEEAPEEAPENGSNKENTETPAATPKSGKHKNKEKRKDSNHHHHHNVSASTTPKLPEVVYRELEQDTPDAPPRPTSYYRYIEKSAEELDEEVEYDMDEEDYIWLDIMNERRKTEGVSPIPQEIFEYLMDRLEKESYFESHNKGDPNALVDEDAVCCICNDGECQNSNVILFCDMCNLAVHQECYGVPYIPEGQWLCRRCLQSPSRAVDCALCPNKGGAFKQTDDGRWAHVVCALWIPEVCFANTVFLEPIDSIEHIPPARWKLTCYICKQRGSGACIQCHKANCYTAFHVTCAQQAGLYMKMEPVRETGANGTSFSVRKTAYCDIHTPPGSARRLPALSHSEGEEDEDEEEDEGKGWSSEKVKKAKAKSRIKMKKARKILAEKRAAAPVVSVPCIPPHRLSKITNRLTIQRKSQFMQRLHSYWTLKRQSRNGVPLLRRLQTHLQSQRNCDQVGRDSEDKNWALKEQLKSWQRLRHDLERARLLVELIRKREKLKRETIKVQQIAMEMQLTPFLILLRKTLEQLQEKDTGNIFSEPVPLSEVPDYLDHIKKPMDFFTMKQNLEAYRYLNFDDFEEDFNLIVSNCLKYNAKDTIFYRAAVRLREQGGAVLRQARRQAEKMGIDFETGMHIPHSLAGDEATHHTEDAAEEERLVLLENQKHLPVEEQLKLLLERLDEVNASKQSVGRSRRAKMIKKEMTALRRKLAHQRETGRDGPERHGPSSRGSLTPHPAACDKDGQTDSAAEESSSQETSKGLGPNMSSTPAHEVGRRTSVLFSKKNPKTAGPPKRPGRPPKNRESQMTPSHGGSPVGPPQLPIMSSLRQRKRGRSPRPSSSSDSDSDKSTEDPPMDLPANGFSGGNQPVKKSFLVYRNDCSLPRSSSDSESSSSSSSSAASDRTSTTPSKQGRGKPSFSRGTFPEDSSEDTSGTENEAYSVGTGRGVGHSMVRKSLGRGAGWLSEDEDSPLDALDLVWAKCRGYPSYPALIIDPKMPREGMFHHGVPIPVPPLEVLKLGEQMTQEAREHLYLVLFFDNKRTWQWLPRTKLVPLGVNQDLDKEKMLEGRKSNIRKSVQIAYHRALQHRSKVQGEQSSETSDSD
Assay: Inhibition of recombinant human His-tagged BRPF1 at 100 uM using biotinylated H4(1 to 21)K5/8/12/16Ac peptide as substrate after 30 mins by AlphaScreen assay relative to control

| Molecule | Test Target | Reading Qualifier | IC50 / µM |
| --- | --- | --- | --- |
| CCc1cnccc1C(=O)Nc1nc(CN2CCCCC2)cs1 | Peregrin (Homo sapiens, UniProt P55201) | = | 515 |
| CC(=O)N(Cc1ccccc1)c1nc(C)c(C(=O)Nc2nnc(C)s2)s1 | Peregrin (Homo sapiens, UniProt P55201) | > | 200 |
| Cc1nc(C)c(C(=O)Nc2ccc(N3CCCCC3)cc2)s1 | Peregrin (Homo sapiens, UniProt P55201) | = | 218 |
| Cc1n[nH]c(C(C)C)c1C(=O)Nc1nc(CN2CCOCC2)cs1 | Peregrin (Homo sapiens, UniProt P55201) | > | 500 |
| Cc1ncsc1C(=O)Nc1nc(CN2CC(C)CC(C)C2)cs1 (stereo not given) | Peregrin (Homo sapiens, UniProt P55201) | > | 500 |
